# Measured on: DRB1*0101
# Test protocol: binding to purified HLA
Measure: IC50 (nM)

Example entries begin here.
| Binder | Assay result |
| --- | --- |
| AAAHFVAAFTLKAEA [H4.F9.E14] | 6.8 |
| AAAEFVAAYTLHAAA [E4.Y9.H12] | 3.9 |
| AAAHFVAANTLHAAA [H4.N9.H12] | 4.1 |

1. AAANFVAAYTLHAAA [N4.Y9.H12]
2. AAAEFVAAWTLHAAA [E4.H12]
Request: Problem: Given the entries 1 and 2 , determine which has the lower reported IC50. Answer = label.
Result: 1
(1: 2.7 nM, 2: 5.1 nM)
